Form field: pIC50 (one value per entry).
Target: p101/p110γ protein (PI3Kγ) (Homo sapiens)
Construct: HA
Assay: PI3Kγ In Vitro Kinase Assay
Details: purified recombinant p101/p110γ with G protein β1/γ2 subunits; 20 μM ATP, 25 μM PIP2; 20 minutes at room temperature; radioactive PIP3 readout
Description: Spodtera frugiperda cells, grown in ESF921 media, were coinfected with baculovirus expressing a glu-tagged […] and baculovirus expressing an HA-tagged p110γ, at a 3:1 ratio of p110 baculovirus to p110γ baculovirus. Sf9 cells were grown to 1×10^7 total cells/mL in 10L bioreactors and harvested 48-72 hours post infection. Samples of infected cells were then tested for expression of p101/p110γ PI3 kinase by immunoprecipitation and Western Blot analysis methods (see below). […]
Units for pIC50: none; it is -log10 of a concentration expressed in mol/L.

MOLECULE	VALUE_MEASURED
O=C1NC(=S)SC1=Cc1ccc2c(c1)N(C(=O)Nc1cccc(C(F)(F)F)c1)CCO2	8.30
CCCCC(=O)N1CCOc2ccc(C=C3SC(=S)NC3=O)cc21	8.30
CCCCCCc1ccc(C(=O)N2CCOc3ccc(C=C4SC(=S)NC4=O)cc32)cc1	5.69
O=C1NC(=S)SC1=Cc1ccc2c(c1)N(C(=O)c1cc(Cl)sc1Cl)CCO2	6.07
O=C1NC(=S)SC1=Cc1ccc2c(c1)N(C(=O)Nc1cc(Cl)cc(Cl)c1)CCO2	7.48
O=C1NC(=S)SC1=Cc1ccc2c(c1)N(C(=O)c1ccco1)CCCO2	5.41

Exercise: Look up and state reported pIC50 for CN1CCN(Cc2ccc(C(=O)N3CCOc4ccc(C=C5SC(=S)NC5=O)cc43)cc2)CC1
Solution: 6.94

---

Target: p101/p110γ protein (PI3Kγ) (Homo sapiens)
Construct: HA
Experiment: PI3Kγ In Vitro Kinase Assay
Settings: purified recombinant p101/p110γ with G protein β1/γ2 subunits; 20 μM ATP, 25 μM PIP2; 20 minutes at room temperature; radioactive PIP3 readout
Method: Spodtera frugiperda cells, grown in ESF921 media, were coinfected with baculovirus expressing a glu-tagged […] and baculovirus expressing an HA-tagged p110γ, at a 3:1 ratio of p110 baculovirus to p110γ baculovirus. Sf9 cells were grown to 1×10^7 total cells/mL in 10L bioreactors and harvested 48-72 hours post infection. Samples of infected cells were then tested for expression of p101/p110γ PI3 kinase by immunoprecipitation and Western Blot analysis methods (see below). […]
# strict inequality: IC50 < 0.1 µM yields t, everything else yields f

MOLECULE	GROUP_LABEL
CC(C(=O)N1CCOc2ccc(C=C3SC(=S)NC3=O)cc21)c1ccccc1 (stereo not drawn)	t
CCC(=O)N1CCOc2ccc(C=C3SC(=S)NC3=O)cc21	t
O=C1NC(=S)SC1=Cc1ccc2c(c1)N(C(=O)COCc1ccccc1)CCO2	t
O=C1NC(=S)SC1=Cc1ccc2c(c1)N(C(=O)NC1CCCC1)CCO2	t
CC(C)C(=O)N1CCOc2ccc(C=C3SC(=S)NC3=O)cc21	t
CC1COc2ccc(C=C3SC(=S)NC3=O)cc2N1C(=O)c1ccccc1 (stereo not drawn)	f
CC(=O)OC(C)C(=O)N1CCOc2ccc(C=C3SC(=S)NC3=O)cc21 (stereo not drawn)	f

Exercise: Could you please tell me whether IC50 recorded for O=C1NC(=S)SC1=Cc1ccc2c(c1)N(C(=O)Oc1cccc3ccccc13)CCCO2 is less than 0.1 µM?
Solution: f

---

Target: p101/p110γ protein (PI3Kγ) (Homo sapiens)
Construct: HA
Test: PI3Kγ In Vitro Kinase Assay
Conditions: purified recombinant p101/p110γ with G protein β1/γ2 subunits; 20 μM ATP, 25 μM PIP2; 20 minutes at room temperature; radioactive PIP3 readout
VALUE_KIND: pIC50
Units for pIC50: none; it is -log10 of a concentration expressed in mol/L.

Would you please look over these solved cases?
MOLECULE	TARGET	pIC50
O=C1NC(=S)SC1=Cc1ccc2c(c1)N(C(=O)Nc1ccc(Oc3ccccc3)cc1)CCO2 [Example 66]	p101/p110γ protein (PI3Kγ) (Homo sapiens)	7.10
O=C1NC(=S)SC1=Cc1ccc2c(c1)N(C(=O)CCCc1ccccc1)CCO2 [Example 82]	p101/p110γ protein (PI3Kγ) (Homo sapiens)	9.00
COc1cccc(NC(=O)N2CCCOc3ccc(C=C4SC(=S)NC4=O)cc32)c1 [Example 122]	p101/p110γ protein (PI3Kγ) (Homo sapiens)	5.66
COC(=O)c1ccc(OC(=O)N2CCOc3ccc(C=C4SC(=S)NC4=O)cc32)cc1 [Example 50]	p101/p110γ protein (PI3Kγ) (Homo sapiens)	8.15

Please look at the following molecule next.
Exercise: Look up and state reported pIC50 for Cc1cc(C)cc(CN2CCCOc3ccc(C=C4SC(=S)NC4=O)cc32)c1 [Example 7]
Solution: 6.11

---

Molecular target: p101/p110γ protein (PI3Kγ) (Homo sapiens, UniProt P48736)
Construct: HA; made in house; host or cells: Spodoptera frugiperda (Sf9) cells, baculovirus coinfection
Sequence (P48736 whole entry, species assumed): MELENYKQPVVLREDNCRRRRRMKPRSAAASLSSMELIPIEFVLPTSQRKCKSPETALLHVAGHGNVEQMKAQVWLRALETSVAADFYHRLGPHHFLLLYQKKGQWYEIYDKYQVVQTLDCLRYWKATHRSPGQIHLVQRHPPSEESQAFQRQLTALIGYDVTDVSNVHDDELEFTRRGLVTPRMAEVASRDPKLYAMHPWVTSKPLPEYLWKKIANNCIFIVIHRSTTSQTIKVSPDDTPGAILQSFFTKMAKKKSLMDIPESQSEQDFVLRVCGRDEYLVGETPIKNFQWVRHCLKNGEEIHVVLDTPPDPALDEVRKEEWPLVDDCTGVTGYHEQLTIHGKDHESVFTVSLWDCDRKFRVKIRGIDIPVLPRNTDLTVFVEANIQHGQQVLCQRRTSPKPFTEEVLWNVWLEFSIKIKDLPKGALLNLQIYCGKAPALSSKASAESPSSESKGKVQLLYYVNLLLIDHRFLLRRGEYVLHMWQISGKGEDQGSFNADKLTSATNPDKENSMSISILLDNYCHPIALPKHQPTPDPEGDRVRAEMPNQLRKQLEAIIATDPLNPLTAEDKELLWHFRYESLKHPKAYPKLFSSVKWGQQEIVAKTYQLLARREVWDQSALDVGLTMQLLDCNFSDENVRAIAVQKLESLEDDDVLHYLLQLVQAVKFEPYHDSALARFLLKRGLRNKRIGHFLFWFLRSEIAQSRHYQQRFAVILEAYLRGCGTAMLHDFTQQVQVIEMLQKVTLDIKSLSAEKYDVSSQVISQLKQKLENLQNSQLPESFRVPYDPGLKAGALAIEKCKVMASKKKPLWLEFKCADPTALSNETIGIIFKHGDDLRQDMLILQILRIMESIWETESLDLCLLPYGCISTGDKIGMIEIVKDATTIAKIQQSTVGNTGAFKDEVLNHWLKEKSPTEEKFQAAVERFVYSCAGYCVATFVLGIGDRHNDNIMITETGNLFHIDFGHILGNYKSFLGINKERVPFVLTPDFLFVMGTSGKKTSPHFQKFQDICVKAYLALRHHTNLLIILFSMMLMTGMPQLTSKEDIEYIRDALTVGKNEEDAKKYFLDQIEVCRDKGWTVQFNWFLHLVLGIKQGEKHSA
Sequence (Q8WYR1 whole entry partner, species assumed): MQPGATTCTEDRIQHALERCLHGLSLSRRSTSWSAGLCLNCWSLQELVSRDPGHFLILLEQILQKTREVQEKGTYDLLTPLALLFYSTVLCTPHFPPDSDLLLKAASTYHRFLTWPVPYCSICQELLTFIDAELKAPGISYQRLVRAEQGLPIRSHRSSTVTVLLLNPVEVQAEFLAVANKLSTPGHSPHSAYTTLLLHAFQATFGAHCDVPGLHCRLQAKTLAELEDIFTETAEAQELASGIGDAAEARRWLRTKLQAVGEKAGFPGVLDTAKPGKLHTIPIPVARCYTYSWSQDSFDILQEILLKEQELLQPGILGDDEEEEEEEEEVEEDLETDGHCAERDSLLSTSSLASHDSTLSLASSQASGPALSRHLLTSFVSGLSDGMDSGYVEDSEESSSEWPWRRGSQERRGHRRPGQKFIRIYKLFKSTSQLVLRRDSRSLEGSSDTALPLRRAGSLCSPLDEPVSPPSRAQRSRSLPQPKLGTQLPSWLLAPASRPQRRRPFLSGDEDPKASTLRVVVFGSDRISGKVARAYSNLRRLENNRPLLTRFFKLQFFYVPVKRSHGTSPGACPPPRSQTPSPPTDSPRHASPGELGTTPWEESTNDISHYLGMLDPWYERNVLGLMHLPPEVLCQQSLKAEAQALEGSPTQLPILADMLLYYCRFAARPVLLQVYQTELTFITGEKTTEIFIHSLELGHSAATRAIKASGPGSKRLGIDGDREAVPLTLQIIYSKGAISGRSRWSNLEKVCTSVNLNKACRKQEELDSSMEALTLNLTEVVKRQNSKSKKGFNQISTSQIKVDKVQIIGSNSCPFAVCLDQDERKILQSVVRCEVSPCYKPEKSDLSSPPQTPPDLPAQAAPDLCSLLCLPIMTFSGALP
Experiment: PI3Kγ In Vitro Kinase Assay
Format: biochemical
Settings: purified recombinant p101/p110γ with G protein β1/γ2 subunits; 20 μM ATP, 25 μM PIP2; 20 minutes at room temperature; radioactive PIP3 readout
Description: Spodtera frugiperda cells, grown in ESF921 media, were coinfected with baculovirus expressing a glu-tagged […] and baculovirus expressing an HA-tagged p110γ, at a 3:1 ratio of p110 baculovirus to p110γ baculovirus. Sf9 cells were grown to 1×10^7 total cells/mL in 10L bioreactors and harvested 48-72 hours post infection. Samples of infected cells were then tested for expression of p101/p110γ PI3 kinase by immunoprecipitation and Western Blot analysis methods (see below). […]
# strict inequality: IC50 < 100 nM yields satisfied, everything else yields not satisfied

Solved cases (4 shown):
COMPOUND	GROUP_LABEL
Cc1ccc(NC(=O)N2CCOc3ccc(C=C4SC(=S)NC4=O)cc32)cc1	satisfied
CCCC(=O)N1CCOc2ccc(C=C3SC(=S)NC3=O)cc21	satisfied
O=C1NC(=S)SC1=Cc1ccc2c(c1)N(C(=O)C1CC1)CCO2	not satisfied
O=C1NC(=S)SC1=Cc1ccc2c(c1)N(C(=O)c1cnc3ccccc3n1)CCO2	not satisfied

Exercise: Could you please tell me whether IC50 recorded for COc1cc(NC(=O)N2CCOc3ccc(C=C4SC(=S)NC4=O)cc32)cc(OC)c1 is less than 100 nM?
Solution: satisfied

Exercise: Could you please tell me whether IC50 recorded for CC(C)C(C)C(=O)N1CCOc2ccc(C=C3SC(=S)NC3=O)cc21 (stereo not shown) is less than 100 nM?
Solution: not satisfied

Exercise: Could you please tell me whether IC50 recorded for O=C1NC(=S)SC1=Cc1ccc2c(c1)N(C(=O)c1ccc3c(c1)OC(F)(F)O3)CCO2 is less than 100 nM?
Solution: not satisfied

Exercise: Could you please tell me whether IC50 recorded for O=C1NC(=S)SC1=Cc1ccc2c(c1)N(S(=O)(=O)c1ccccc1)CCO2 is less than 100 nM?
Solution: not satisfied

Exercise: Could you please tell me whether IC50 recorded for CCCCCCCCNC(=O)N1CCOc2ccc(C=C3SC(=S)NC3=O)cc21 is less than 100 nM?
Solution: not satisfied

Exercise: Could you please tell me whether IC50 recorded for O=C1NC(=S)SC1=Cc1ccc2c(c1)N(C(=O)c1cccnc1)CCCO2 is less than 100 nM?
Solution: not satisfied

Exercise: Could you please tell me whether IC50 recorded for O=C1NC(=S)SC1=Cc1ccc2c(c1)N(C(=O)Cc1cccs1)CCO2 is less than 100 nM?
Solution: satisfied

Exercise: Could you please tell me whether IC50 recorded for CCc1ccc(C(=O)N2CCOc3ccc(C=C4SC(=S)NC4=O)cc32)cc1 is less than 100 nM?
Solution: not satisfied

Exercise: Could you please tell me whether IC50 recorded for O=C1NC(=S)SC1=Cc1ccc2c(c1)N(C(=O)CCC1CCCC1)CCO2 is less than 100 nM?
Solution: satisfied

Exercise: Could you please tell me whether IC50 recorded for Cc1ccc(OC(=O)N2CCOc3ccc(C=C4SC(=S)NC4=O)cc32)cc1 is less than 100 nM?
Solution: satisfied

Exercise: Could you please tell me whether IC50 recorded for COc1ccc(CC(=O)N2CCOc3ccc(C=C4SC(=S)NC4=O)cc32)cc1OC is less than 100 nM?
Solution: satisfied

Exercise: Could you please tell me whether IC50 recorded for O=C1NC(=S)SC1=Cc1ccc2c(c1)N(C(=O)c1cc(C(F)(F)F)cc(C(F)(F)F)c1)CCO2 is less than 100 nM?
Solution: not satisfied

---

Target: p101/p110γ protein (PI3Kγ) (Homo sapiens, UniProt P48736)
Construct: HA
Test: PI3Kγ In Vitro Kinase Assay
Conditions: purified recombinant p101/p110γ with G protein β1/γ2 subunits; 20 μM ATP, 25 μM PIP2; 20 minutes at room temperature; radioactive PIP3 readout
Form field: IC50 (one value per entry).

Exercise: Report IC50 from p101/p110γ protein (PI3Kγ) (Homo sapiens, UniProt P48736) testing of COc1cc(OC)cc(C(=O)N2CCOc3ccc(C=C4SC(=S)NC4=O)cc32)c1
Solution: 1130 nM

Exercise: Report IC50 from p101/p110γ protein (PI3Kγ) (Homo sapiens, UniProt P48736) testing of O=C1NC(=S)SC1=Cc1ccc2c(c1)N(C(=O)c1ccc3nonc3c1)CCCO2
Solution: 1530 nM

Exercise: Report IC50 from p101/p110γ protein (PI3Kγ) (Homo sapiens, UniProt P48736) testing of CC(C(=O)N1CCOc2ccc(C=C3SC(=S)NC3=O)cc21)C(C)(C)C (stereo not drawn)
Solution: 1030 nM
